Source listed as patent US20230212123A1.

- Assay Overview: Pharmacokinetics in mice: plasma and brain drug AUC
- Format: in vivo
- Reported Conditions: over 7 hrs following single IP injection at 10 mg/kg
Reported Metric: Brain drug AUC (ng·h/g)

Solved cases below.
{"columns": ["Compound", "Units", "Measurement"],
 "data": [
  ["CC(C)(C)Oc1ccc([C@@H](O)[C@@H](CN2CCCC2)NC(=O)CC2Cc3ccccc3C2)cc1 [reference compound]", "ng·h/g", 619],
  ["O=C(CC1Cc2ccccc2C1)N[C@H](CN1CCCC1)[C@H](O)c1ccc(OC(F)(F)F)cn1", "ng·h/g", 398],
  ["CC(C)(C)Oc1ccc([C@@H](O)[C@@H](CN2CCCC2)NC(=O)CC2Cc3ccccc3C2)nc1", "ng·h/g", 308],
  ["O=C(CC1Cc2ccccc2C1)N[C@H](CN1CCCC1)[C@H](O)c1ccc(OC(F)(F)F)cc1 [reference compound]", "ng·h/g", 1046]
]}

A = O=C(CC1Cc2ccccc2C1)N[C@H](CN1CCCC1)[C@H](O)c1cccc(Cl)c1 [reference compound]
B = O=C(CC1Cc2ccccc2C1)N[C@H](CN1CCCC1)[C@H](O)c1cc(Cl)ccn1
In: // max by Brain drug AUC over [ A , B ] Please indicate the selected item by its label.
Out: A
(A: 1109 ng·h/g, B: 173 ng·h/g)
